Biological target: Human M4 (Homo sapiens)
Construct: expressed in transfected cells
Sequence (P08173 whole entry): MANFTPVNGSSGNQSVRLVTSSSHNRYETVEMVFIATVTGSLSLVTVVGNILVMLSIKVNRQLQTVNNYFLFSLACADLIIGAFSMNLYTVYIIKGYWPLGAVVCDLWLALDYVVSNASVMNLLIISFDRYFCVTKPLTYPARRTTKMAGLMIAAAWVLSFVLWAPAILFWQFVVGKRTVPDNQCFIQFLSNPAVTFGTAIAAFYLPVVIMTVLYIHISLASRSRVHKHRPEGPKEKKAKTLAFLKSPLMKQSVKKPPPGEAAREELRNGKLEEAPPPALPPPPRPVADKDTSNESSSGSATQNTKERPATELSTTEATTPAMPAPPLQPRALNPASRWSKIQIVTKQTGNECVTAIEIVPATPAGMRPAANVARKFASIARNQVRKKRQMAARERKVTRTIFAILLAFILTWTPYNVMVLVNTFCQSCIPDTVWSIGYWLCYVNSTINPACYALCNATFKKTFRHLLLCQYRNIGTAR
Assay: mAChR M4 cell-based functional assay (calcium flux, decrease of EC80 acetylcholine response)
Conditions: M4/Gqi5/CHO-K1 cells; % ACh maximum at 30 μM; read-out: Emin (% ACh maximum at 30 μM)
quantity: remaining activity at 30 µM (%)

Take a look at these entries with their results.
Fc1ccccc1-c1ccc(N[C@H]2[C@@H]3CN(CC4CCOCC4)C[C@@H]32)nn1 [Compound 8]    38
CC(C)(C)CCN1C[C@@H]2[C@H](C1)[C@H]2Nc1ccc(-c2cc(F)ccc2F)nn1 [Compound 37]    4
Fc1ccc(Cl)c(-c2ccc(CN[C@H]3[C@@H]4CN(CC5CCCCC5)C[C@@H]43)nn2)c1 [Compound 6]    17.8
Fc1ccc(Cl)c(-c2ccc(N[C@H]3[C@@H]4CN(Cc5ccc6c(c5)OCO6)C[C@@H]43)nn2)c1 [Compound 25]    6
Fc1ccc(-c2ccc(N[C@H]3[C@@H]4CN(CC5CCOCC5)C[C@@H]43)nn2)c(Cl)c1 [Compound 14]    12

(1) Fc1cccc(-c2ccc(N[C@H]3[C@@H]4CN(CC5CCOCC5)C[C@@H]43)nn2)c1 [Compound 9]
(2) Fc1ccc(F)c(-c2ccc(N[C@H]3[C@@H]4CN(Cc5ccccn5)C[C@@H]43)nn2)c1 [Compound 34]
Exercise: Which record shows the lower remaining activity at 30 µM: the first, 1 , or the second, 2 ? Write down the label attached to your selection.
Solution: 1
